- Tested on: Calf thymus DNA
- procedure.text: Displacement of DNA-bound ethidium bromide from calf thymus DNA by fluorescence assay
- Type: nucleic-acid assay
- conditions: Bos taurus
property: Kapp (×10⁶ /M)

Examples from the recorded data:
>>> numeric_readout("Cl.NCC(=O)NCCCn1c2c(c3ccccc3c1=O)C(=O)c1ccccc1-2")
0.95
>>> numeric_readout("Cl.N[C@@H](Cc1cnc[nH]1)C(=O)OCCCn1c2c(c3ccccc3c1=O)C(=O)c1ccccc1-2")
0.6
>>> numeric_readout("Cl.N[C@H](Cc1cnc[nH]1)C(=O)OCCn1c2c(c3ccccc3c1=O)C(=O)c1ccccc1-2")
0.22
>>> numeric_readout("Cl.NC(Cc1cnc[nH]1)C(=O)OCCCn1c2c(c3ccccc3c1=O)C(=O)c1ccccc1-2 (racemic)")
0.69
>>> numeric_readout("Cl.Cl.NCCCCC(N)C(=O)OCCn1c2c(c3ccccc3c1=O)C(=O)c1ccccc1-2 (racemic)")
0.87
>>> numeric_readout("Cl.Cl.N=C(N)NCCC[C@H](N)C(=O)NCCCn1c2c(c3ccccc3c1=O)C(=O)c1ccccc1-2")
10.2
>>> numeric_readout("Cl.Cl.NCCCCC(N)C(=O)NCCCn1c2c(c3ccccc3c1=O)C(=O)c1ccccc1-2 (racemic)")
10.6
>>> numeric_readout("Cl.Cl.NCCCCC(N)CNCCn1c2c(c3ccccc3c1=O)C(=O)c1ccccc1-2 (stereo not drawn)")
13.9

P. NCCCC[C@@H](N)C(=O)OCCCn1c2c(c3ccccc3c1=O)C(=O)c1ccccc1-2
Q. Cl.Cl.NCCCCC(N)CNCCCn1c2c(c3ccccc3c1=O)C(=O)c1ccccc1-2 (stereo not drawn)
R. Cl.N[C@@H](Cc1cnc[nH]1)C(=O)NCCCn1c2c(c3ccccc3c1=O)C(=O)c1ccccc1-2
Request: Sequence the entries by Kapp, beginning with the highest number. Response field: labels, in requested order.
Response: Q, P, R
(Q: 17 ×10⁶ /M, P: 8.27 ×10⁶ /M, R: 0.72 ×10⁶ /M)
